Biological target: NEK9 (human)
Assay: radiometric filter-binding kinase assay, Kinase HotSpot
Conditions: compound 0.5 µM; ATP 10 µM
Record form. Attribute: residual activity. Fill in for each entry.
Answer by giving the amount and then stating its unit.

Give residual activity for each listed item.
1. COc1ccc2c(c1)/C(=C/c1cnc[nH]1)C(O)=N2
2. O=C1NC(=O)c2c1c1c3ccccc3[nH]c1n1cncc21
3. Cc1nc(-c2ccccc2)c(-c2ccncc2)o1
4. COc1ccc2c(c1)c(C1=C(c3c[nH]c4ccccc34)C(=O)NC1=O)cn2CCCN(C)C
5. CC(C)(C)c1cc(C=C(C#N)C#N)cc(Br)c1O
6. c1ccc2c(-c3ccncc3)c[nH]c2c1

Output:
["83.2%", "77.4%", "97.2%", "90.3%", "103%", "101%"]
